From: patent US12642270B2

Assay Procedure: Log P by HPLC on reversed phase columns (EEC directive 79/831 Annex V.A8)
Type: physicochemical
Particulars: method [a]
Quantity Kind: LogP

Quick one: LogP for COC(=O)C1(NC(=O)c2sc(Br)c(Br)c2F)CC(C)(C)C1 [1.0621] ?
4.12^[a]

Quick one: LogP for CCOC(=O)C(CCSC)NC(=O)c1sc(Br)c(Cl)c1Br (stereo not drawn) [1.0838] ?
4.55^[a]

Quick one: LogP for CCOC(=O)C(CCSC)NC(=O)c1sc(C#N)c(Cl)c1Cl (stereo not drawn) [1.0813] ?
3.60^[a]

Quick one: LogP for CCOC(=O)CNC(=O)c1sc(C#N)c(Cl)c1Cl [1.0570] ?
2.60^[a]

Quick one: LogP for CC(C)C(NC(=O)c1sc(Br)c(Br)c1F)C(=O)O (stereo not drawn) [1.0234] ?
2.97^[a]

Quick one: LogP for CCOC(=O)C(CC(C)C)NC(=O)c1sc(Br)c(Br)c1Cl (stereo not drawn) [1.0147] ?
5.19^[a]

Quick one: LogP for CCOC(=O)C(C(C)C)N(C)C(=O)c1sc(Br)c(Br)c1F (stereo not drawn) [1.0171] ?
4.39^[a]

Quick one: LogP for C=CCOC(=O)C1(NC(=O)c2sc(Cl)c(Cl)c2C#N)CC1 [1.0913] ?
2.91^[a]

Quick one: LogP for CCOC(=O)C(CC(C)C)NC(=O)c1sc(Cl)c(Br)c1Br (stereo not drawn) [1.0215] ?
5.18^[a]

Quick one: LogP for CC(C)(C)OC(=O)C1(NC(=O)c2sc(Cl)c(Cl)c2Br)CCC1 [1.0891] ?
5.28^[a]

Quick one: LogP for O=C(O)CNC(=O)c1sc(Cl)c(Br)c1Cl [1.0875] ?
2.18^[a]

Quick one: LogP for CCOC(=O)CNC(=O)c1sc(C#N)c(Br)c1Cl [1.0604] ?
2.63^[a]

Quick one: LogP for O=C(CNC(=O)c1sc(Br)c(Br)c1F)OC1CC1 [1.0856] ?
3.02^[a]

Quick one: LogP for COC(=O)C(NC(=O)c1sc(Cl)c(Cl)c1Br)C1CC1 (stereo not drawn) [1.0263] ?
3.84^[a]

Quick one: LogP for N#CCNC(=O)c1sc(Br)c(Br)c1F [1.0205] ?
2.41^[a]

Quick one: LogP for CC(C)OC(=O)C1(NC(=O)c2sc(Br)c(Br)c2F)CCC1 [1.0620] ?
4.23^[a]

Quick one: LogP for CC(C)(C)OC(=O)C1(NC(=O)c2sc(Cl)c(Cl)c2Br)CC(F)(F)C1 [1.0614] ?
4.83^[a]

Quick one: LogP for COC(=O)CNC(=O)c1sc(I)c(Cl)c1Cl [1.0826] ?
2.82^[a]

* * *

Assay Procedure: Log P by HPLC on reversed phase columns (EEC directive 79/831 Annex V.A8)
Format: physicochemical
Particulars: method marker [a] given with each value; Table 1.1, compounds of formula (I)
Provide the reported LogP of each item.

Quick one: LogP for "Cc1c(C(=O)NCC(=O)OC2CCCC2)sc(C#N)c1Br" ?
3.24^[a]

Quick one: LogP for COC(=O)C(CCSC(C)=O)NC(=O)c1sc(Br)c(Br)c1Cl (stereo not shown) ?
3.98^[a]

Quick one: LogP for "CCOC(=O)C1(NC(=O)c2sc(Br)c(Cl)c2Cl)CSC1" ?
3.94^[a]

Quick one: LogP for CC(C)C(C#N)NC(=O)c1sc(Cl)c(Cl)c1Br (stereo not shown) ?
3.84^[a]

Quick one: LogP for "CCOC(=O)C1(NC(=O)c2sc(Cl)c(Br)c2C)CSC1" ?
3.66^[a]

Quick one: LogP for COC(=O)C(Cc1ccc(Cl)cc1)NC(=O)c1sc(Br)c(Br)c1Cl (racemic) ?
4.95^[a]

Quick one: LogP for "CCOC(=O)CN(C(=O)c1sc(Br)c(Br)c1Cl)C1CC1" ?
3.81^[a]
